Each entry below carries its reported Kd.
target: Homeodomain-interacting protein kinase 3 (Homo sapiens); test: Binding affinity to recombinant N-terminal His-FLAG-GST-tagged HIPK3 (unknown origin) (161 to 562 residues) expressed in baculovirus infected Sf9 insect cells incubated for 1 hr by TR-FRET assay
Sequence (Q9H422 whole entry, the tested form may be a part): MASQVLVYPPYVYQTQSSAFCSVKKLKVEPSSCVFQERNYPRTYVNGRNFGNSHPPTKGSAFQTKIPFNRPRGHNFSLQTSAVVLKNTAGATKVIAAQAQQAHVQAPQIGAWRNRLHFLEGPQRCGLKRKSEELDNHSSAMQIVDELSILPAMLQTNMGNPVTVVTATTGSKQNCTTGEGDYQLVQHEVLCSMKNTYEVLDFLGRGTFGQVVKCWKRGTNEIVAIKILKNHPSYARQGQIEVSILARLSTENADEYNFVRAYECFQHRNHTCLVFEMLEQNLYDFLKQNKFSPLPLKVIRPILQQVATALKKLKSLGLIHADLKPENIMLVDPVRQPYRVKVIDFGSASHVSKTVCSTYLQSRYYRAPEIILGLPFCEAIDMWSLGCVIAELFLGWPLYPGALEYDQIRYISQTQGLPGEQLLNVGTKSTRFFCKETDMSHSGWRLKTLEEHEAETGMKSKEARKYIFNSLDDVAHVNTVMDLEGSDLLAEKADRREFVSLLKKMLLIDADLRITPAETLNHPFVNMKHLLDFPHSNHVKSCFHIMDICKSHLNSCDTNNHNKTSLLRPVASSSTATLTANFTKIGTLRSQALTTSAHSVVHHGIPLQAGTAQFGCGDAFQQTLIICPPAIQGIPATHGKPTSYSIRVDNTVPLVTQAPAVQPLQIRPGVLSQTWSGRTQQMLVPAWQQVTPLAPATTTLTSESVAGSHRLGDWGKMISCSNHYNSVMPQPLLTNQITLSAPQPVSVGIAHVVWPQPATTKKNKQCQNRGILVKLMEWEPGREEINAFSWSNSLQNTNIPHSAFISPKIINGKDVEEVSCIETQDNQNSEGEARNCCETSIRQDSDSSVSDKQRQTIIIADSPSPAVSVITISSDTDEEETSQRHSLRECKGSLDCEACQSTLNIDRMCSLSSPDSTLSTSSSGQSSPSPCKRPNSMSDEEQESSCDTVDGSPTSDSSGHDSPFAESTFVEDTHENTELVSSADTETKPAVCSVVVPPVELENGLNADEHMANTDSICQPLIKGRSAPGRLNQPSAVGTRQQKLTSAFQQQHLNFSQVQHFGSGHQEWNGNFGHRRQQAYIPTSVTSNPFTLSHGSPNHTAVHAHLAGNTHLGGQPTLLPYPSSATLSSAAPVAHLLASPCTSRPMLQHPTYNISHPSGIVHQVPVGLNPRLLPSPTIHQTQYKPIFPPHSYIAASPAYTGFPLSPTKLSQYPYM
Could you give me the number in nM? Just the number is fine.

CO[C@@H]1[C@H](NCCOCCOCCOCCNC(=O)CCC2=[N+]3C(=Cc4c(C)cc(C)n4[B-]3(F)F)C=C2)C[C@H]2O[C@]1(C)n1c3ccccc3c3c4c(c5c6ccccc6n2c5c31)C(=O)NC4	798

As a next step, examine the compound that follows.
Inquiry: Identify Kd associated with the compound CO[C@@H]1[C@H](N(C)CCOCCOCCOCCNC(=O)CCC2=[N+]3C(=Cc4c(C)cc(C)n4[B-]3(F)F)C=C2)C[C@H]2O[C@]1(C)n1c3ccccc3c3c4c(c5c6ccccc6n2c5c31)C(=O)NC4
Reply text: 1030

###

molecular target: LIM domain kinase 1 (Homo sapiens, UniProt P53667); assay: Binding affinity to truncated human N-terminal GST-tagged LIMK1 (285 to 638 residues) expressed in baculovirus expression system using cofilin2 as substrate incubated for 1 hr by TR-FRET assay
Each entry below carries its reported Kd.
Could you give me the number in nM? Just the number is fine.

CO[C@@H]1[C@H](N(C)CCOCCOCCOCCNC(=O)CCC2=[N+]3C(=Cc4c(C)cc(C)n4[B-]3(F)F)C=C2)C[C@H]2O[C@]1(C)n1c3ccccc3c3c4c(c5c6ccccc6n2c5c31)C(=O)NC4	32

Inquiry: Identify Kd associated with the compound CO[C@@H]1[C@H](NCCOCCOCCOCCNC(=O)CCC2=[N+]3C(=Cc4c(C)cc(C)n4[B-]3(F)F)C=C2)C[C@H]2O[C@]1(C)n1c3ccccc3c3c4c(c5c6ccccc6n2c5c31)C(=O)NC4
Reply text: 6

###

molecular target: UniProt:P29597; experiment: Binding affinity to recombinant N-terminal His-FLAG-GST-tagged TYK2 (unknown origin) (871 to 1187 residues) expressed in baculovirus infected Sf9 insect cells incubated for 1 hr by TR-FRET assay
assay.metric: Kd (nM)
Could you give me the number in nM? Just the number is fine.

CO[C@@H]1[C@H](N(C)CCOCCOCCOCCNC(=O)CCC2=[N+]3C(=Cc4c(C)cc(C)n4[B-]3(F)F)C=C2)C[C@H]2O[C@]1(C)n1c3ccccc3c3c4c(c5c6ccccc6n2c5c31)C(=O)NC4	49

As a next step, examine the compound that follows.
Inquiry: Identify Kd associated with the compound CO[C@@H]1[C@H](NCCOCCOCCOCCNC(=O)CCC2=[N+]3C(=Cc4c(C)cc(C)n4[B-]3(F)F)C=C2)C[C@H]2O[C@]1(C)n1c3ccccc3c3c4c(c5c6ccccc6n2c5c31)C(=O)NC4
Reply text: 8

###

biological target: Ephrin type-B receptor 2 (Homo sapiens); assay: Binding affinity to recombinant N-terminal His-FLAG-GST-tagged EPHB2 (unknown origin) (581 to 986 residues) expressed in baculovirus infected Sf9 insect cells incubated for 1 hr by TR-FRET assay
assay.metric: Kd (nM)
Could you give me the number in nM? Just the number is fine.

Inquiry: Identify Kd associated with the molecule CO[C@@H]1[C@H](NCCOCCOCCOCCNC(=O)CCC2=[N+]3C(=Cc4c(C)cc(C)n4[B-]3(F)F)C=C2)C[C@H]2O[C@]1(C)n1c3ccccc3c3c4c(c5c6ccccc6n2c5c31)C(=O)NC4
Reply text: 985

###

molecular target: Serine/threonine-protein kinase LATS2 (Homo sapiens, UniProt Q9NRM7); experiment: Binding affinity to recombinant full-length N-terminal His-FLAG-GST-tagged LATS2 (unknown origin) (553 to 1088 residues) expressed in baculovirus infected Sf9 insect cells incubated for 1 hr by TR-FRET assay
Each entry below carries its reported Kd.
Could you give me the number in nM? Just the number is fine.

CO[C@@H]1[C@H](NCCOCCOCCOCCNC(=O)CCC2=[N+]3C(=Cc4c(C)cc(C)n4[B-]3(F)F)C=C2)C[C@H]2O[C@]1(C)n1c3ccccc3c3c4c(c5c6ccccc6n2c5c31)C(=O)NC4	135

As a next step, examine the compound that follows.
Inquiry: Identify Kd associated with the compound CO[C@@H]1[C@H](N(C)CCOCCOCCOCCNC(=O)CCC2=[N+]3C(=Cc4c(C)cc(C)n4[B-]3(F)F)C=C2)C[C@H]2O[C@]1(C)n1c3ccccc3c3c4c(c5c6ccccc6n2c5c31)C(=O)NC4
Reply text: 223

###

Each entry below carries its reported Kd.
molecular target: Fibroblast growth factor receptor 1 (Homo sapiens); assay: Binding affinity to recombinant N-terminal His-FLAG-GST-tagged FGFR1 (unknown origin) (396 to 820 residues) expressed in baculovirus infected Sf9 insect cells incubated for 1 hr by TR-FRET assay
Sequence (P11362 whole entry, the tested form may be a part): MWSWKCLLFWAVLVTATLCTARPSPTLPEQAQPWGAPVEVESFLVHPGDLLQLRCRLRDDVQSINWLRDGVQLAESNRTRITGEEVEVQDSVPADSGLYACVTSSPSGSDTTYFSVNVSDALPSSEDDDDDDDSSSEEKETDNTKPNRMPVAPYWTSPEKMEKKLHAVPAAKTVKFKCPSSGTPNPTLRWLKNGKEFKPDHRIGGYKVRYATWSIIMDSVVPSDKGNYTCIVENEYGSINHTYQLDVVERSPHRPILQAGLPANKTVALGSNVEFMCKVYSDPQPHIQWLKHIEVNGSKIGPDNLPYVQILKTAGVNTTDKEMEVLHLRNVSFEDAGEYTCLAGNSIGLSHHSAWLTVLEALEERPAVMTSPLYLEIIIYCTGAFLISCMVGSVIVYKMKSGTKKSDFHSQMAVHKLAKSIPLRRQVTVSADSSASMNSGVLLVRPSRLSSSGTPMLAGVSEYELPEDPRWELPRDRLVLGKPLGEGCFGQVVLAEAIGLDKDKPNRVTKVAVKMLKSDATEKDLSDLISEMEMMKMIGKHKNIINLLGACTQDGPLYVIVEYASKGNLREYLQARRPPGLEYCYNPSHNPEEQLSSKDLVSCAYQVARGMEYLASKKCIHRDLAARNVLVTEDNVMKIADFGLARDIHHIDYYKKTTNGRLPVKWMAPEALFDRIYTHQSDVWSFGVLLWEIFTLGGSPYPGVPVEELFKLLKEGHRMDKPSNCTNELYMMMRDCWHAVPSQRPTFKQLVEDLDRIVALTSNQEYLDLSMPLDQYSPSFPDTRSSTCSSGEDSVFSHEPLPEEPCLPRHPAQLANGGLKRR
Could you give me the number in nM? Just the number is fine.

CO[C@@H]1[C@H](NCCOCCOCCOCCNC(=O)CCC2=[N+]3C(=Cc4c(C)cc(C)n4[B-]3(F)F)C=C2)C[C@H]2O[C@]1(C)n1c3ccccc3c3c4c(c5c6ccccc6n2c5c31)C(=O)NC4	268

Inquiry: Identify Kd associated with the molecule CO[C@@H]1[C@H](N(C)CCOCCOCCOCCNC(=O)CCC2=[N+]3C(=Cc4c(C)cc(C)n4[B-]3(F)F)C=C2)C[C@H]2O[C@]1(C)n1c3ccccc3c3c4c(c5c6ccccc6n2c5c31)C(=O)NC4
Reply text: 643

###

biological target: Insulin receptor (Homo sapiens, UniProt P06213); assay: Binding affinity to recombinant full-length N-terminal His-FLAG-GST-tagged INSR (unknown origin) (1005 to 1310 residues) expressed in baculovirus infected Sf9 insect cells incubated for 1 hr by TR-FRET assay
Sequence (P06213 28-758 limits assumed): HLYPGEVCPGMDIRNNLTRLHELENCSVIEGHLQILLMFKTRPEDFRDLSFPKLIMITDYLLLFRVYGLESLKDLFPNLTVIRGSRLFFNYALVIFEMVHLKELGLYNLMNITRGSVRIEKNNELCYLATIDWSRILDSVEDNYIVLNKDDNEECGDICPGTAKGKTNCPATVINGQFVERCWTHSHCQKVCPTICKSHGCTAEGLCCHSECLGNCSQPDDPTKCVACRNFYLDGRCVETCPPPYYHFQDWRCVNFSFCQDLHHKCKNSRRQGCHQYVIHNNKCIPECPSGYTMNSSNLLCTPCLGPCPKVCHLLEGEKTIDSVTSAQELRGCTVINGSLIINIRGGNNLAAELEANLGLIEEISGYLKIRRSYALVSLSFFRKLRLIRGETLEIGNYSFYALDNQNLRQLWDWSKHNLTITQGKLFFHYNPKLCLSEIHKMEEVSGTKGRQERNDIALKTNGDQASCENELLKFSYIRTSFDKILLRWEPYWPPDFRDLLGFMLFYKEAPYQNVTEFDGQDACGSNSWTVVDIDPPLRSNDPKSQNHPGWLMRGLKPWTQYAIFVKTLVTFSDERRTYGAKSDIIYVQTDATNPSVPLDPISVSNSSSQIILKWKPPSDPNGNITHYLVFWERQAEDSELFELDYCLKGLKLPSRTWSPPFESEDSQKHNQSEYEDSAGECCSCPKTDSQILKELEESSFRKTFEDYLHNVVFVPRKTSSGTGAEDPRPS
Sequence (P06213 763-1382 limits assumed): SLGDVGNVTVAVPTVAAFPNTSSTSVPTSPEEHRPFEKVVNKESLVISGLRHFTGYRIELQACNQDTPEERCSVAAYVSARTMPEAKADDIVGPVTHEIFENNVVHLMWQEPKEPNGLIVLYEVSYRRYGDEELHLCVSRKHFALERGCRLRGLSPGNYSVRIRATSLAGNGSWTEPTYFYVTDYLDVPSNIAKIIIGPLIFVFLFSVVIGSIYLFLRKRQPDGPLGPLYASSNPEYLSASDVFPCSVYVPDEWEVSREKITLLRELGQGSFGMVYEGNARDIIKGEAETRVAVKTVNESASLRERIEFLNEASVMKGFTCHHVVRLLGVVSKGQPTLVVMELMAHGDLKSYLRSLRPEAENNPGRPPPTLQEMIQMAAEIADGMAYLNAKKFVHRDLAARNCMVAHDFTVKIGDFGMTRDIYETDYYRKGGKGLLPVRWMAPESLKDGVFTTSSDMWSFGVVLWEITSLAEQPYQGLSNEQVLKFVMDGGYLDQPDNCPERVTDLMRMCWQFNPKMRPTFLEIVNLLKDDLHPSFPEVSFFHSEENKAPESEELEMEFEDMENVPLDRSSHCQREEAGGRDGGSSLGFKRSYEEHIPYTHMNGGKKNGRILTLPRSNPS
Each entry below carries its reported pKd.
Scale: negative log10 of molar concentration, which is what pKd denotes.

CO[C@@H]1[C@H](N(C)CCOCCOCCOCCNC(=O)CCC2=[N+]3C(=Cc4c(C)cc(C)n4[B-]3(F)F)C=C2)C[C@H]2O[C@]1(C)n1c3ccccc3c3c4c(c5c6ccccc6n2c5c31)C(=O)NC4	5.77

Inquiry: Identify pKd associated with the compound CO[C@@H]1[C@H](NCCOCCOCCOCCNC(=O)CCC2=[N+]3C(=Cc4c(C)cc(C)n4[B-]3(F)F)C=C2)C[C@H]2O[C@]1(C)n1c3ccccc3c3c4c(c5c6ccccc6n2c5c31)C(=O)NC4
Reply text: 5.73

###

Each entry below carries its reported Kd.
molecular target: CDK9/cyclin T1 (Homo sapiens); experiment: Binding affinity to recombinant human full length N-terminal GST-tagged CDK9 co-expressed with full length N-terminal His-tagged CyclinT1 expressed in baculovirus expression system using CDK9 substrate incubated for 1 hr by TR-FRET assay
Sequence (O60563 whole entry): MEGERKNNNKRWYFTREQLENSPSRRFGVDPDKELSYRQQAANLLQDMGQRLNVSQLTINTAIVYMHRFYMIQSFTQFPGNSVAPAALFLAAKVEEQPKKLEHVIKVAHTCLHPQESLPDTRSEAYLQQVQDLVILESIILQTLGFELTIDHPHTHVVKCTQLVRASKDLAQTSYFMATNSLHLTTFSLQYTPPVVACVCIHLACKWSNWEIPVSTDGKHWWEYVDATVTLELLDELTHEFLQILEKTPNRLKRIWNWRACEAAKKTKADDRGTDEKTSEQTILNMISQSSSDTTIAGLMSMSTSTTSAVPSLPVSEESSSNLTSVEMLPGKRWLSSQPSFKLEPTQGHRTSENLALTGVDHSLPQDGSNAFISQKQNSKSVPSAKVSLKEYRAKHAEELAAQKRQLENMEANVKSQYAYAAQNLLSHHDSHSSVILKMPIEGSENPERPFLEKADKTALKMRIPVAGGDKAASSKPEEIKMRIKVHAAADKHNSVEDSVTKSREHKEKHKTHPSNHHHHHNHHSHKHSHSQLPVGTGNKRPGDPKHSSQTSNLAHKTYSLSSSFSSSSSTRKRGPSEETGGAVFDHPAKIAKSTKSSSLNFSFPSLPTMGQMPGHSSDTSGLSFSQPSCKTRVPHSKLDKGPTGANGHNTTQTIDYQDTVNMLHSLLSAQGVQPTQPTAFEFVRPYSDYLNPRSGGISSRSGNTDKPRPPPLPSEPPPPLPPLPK
Sequence (P50750 whole entry): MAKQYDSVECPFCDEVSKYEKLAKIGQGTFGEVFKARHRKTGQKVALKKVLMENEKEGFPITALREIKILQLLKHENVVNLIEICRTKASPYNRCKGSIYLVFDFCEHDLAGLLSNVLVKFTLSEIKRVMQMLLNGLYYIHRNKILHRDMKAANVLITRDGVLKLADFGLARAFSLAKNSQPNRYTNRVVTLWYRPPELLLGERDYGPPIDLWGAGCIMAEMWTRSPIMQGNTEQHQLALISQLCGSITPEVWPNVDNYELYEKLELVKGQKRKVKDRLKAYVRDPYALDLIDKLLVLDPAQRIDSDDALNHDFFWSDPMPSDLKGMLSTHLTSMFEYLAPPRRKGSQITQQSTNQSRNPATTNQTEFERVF
Could you give me the number in µM? Just the number is fine.

CO[C@@H]1[C@H](N(C)CCOCCOCCOCCNC(=O)CCC2=[N+]3C(=Cc4c(C)cc(C)n4[B-]3(F)F)C=C2)C[C@H]2O[C@]1(C)n1c3ccccc3c3c4c(c5c6ccccc6n2c5c31)C(=O)NC4	0.116

As a next step, examine the molecule that follows.
Inquiry: Identify Kd associated with the molecule CO[C@@H]1[C@H](NCCOCCOCCOCCNC(=O)CCC2=[N+]3C(=Cc4c(C)cc(C)n4[B-]3(F)F)C=C2)C[C@H]2O[C@]1(C)n1c3ccccc3c3c4c(c5c6ccccc6n2c5c31)C(=O)NC4
Reply text: 0.162

###

Target: MAP/microtubule affinity-regulating kinase 4 (Homo sapiens)
Sequence (Q96L34 whole entry): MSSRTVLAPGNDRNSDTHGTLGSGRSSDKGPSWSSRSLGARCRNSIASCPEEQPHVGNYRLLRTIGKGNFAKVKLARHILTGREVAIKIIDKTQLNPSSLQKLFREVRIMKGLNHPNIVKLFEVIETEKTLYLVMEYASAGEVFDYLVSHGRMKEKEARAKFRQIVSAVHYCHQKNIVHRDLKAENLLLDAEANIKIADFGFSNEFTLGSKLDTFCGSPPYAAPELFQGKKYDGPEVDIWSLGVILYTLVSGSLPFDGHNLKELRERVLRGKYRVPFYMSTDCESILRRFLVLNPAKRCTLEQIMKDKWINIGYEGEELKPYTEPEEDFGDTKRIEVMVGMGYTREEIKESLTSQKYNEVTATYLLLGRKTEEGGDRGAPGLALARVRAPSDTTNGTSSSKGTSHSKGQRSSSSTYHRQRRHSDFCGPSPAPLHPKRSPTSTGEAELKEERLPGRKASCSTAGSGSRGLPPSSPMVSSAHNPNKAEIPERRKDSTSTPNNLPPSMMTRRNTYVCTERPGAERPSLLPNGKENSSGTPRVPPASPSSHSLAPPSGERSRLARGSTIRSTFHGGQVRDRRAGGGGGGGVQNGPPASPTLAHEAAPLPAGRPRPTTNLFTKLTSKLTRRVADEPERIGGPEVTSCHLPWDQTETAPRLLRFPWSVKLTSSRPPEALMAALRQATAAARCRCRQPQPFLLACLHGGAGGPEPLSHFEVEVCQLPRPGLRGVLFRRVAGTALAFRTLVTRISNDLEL
Test: Binding affinity to recombinant full-length N-terminal His-FLAG-tagged MARK4 (unknown origin) expressed in baculovirus infected Sf9 insect cells incubated for 1 hr by TR-FRET assay
assay.metric: Kd (nM)
Could you give me the number in nM? Just the number is fine.

Inquiry: Identify Kd associated with the molecule CO[C@@H]1[C@H](NCCOCCOCCOCCNC(=O)CCC2=[N+]3C(=Cc4c(C)cc(C)n4[B-]3(F)F)C=C2)C[C@H]2O[C@]1(C)n1c3ccccc3c3c4c(c5c6ccccc6n2c5c31)C(=O)NC4
Reply text: 6
